test system: Staphylococcus aureus; assay: Antibacterial activity against Staphylococcus aureus ATCC 29213 after 16 to 20 hrs by broth microdilution method; type: functional
Square brackets hold non-standard residues; d marks the D form. Peptide text beside a SMILES is read from it. * marks the point of attachment. Benzoyl(4-(4-hexylphenyl)) = CCCCCCc1ccc(-c2ccc(C(=O)*)cc2)cc1; X1 = C[C@H](N*)B1OC2C[C@@H]3C[C@@H](C3(C)C)[C@]2(C)O1; boroAla = C[C@H](N*)B(O)O; Orn = NCCC[C@H](N)C(=O)O
MIC less than 30 µg/mL is TRUE; MIC greater than or equal to 30 µg/mL is FALSE.

Solved entries (count: 5):
molecule	assigned_label
CCCCCCc1ccc(-c2ccc(C(=O)N[C@@H](Cc3cnc[nH]3)C(=O)N[C@H](C(=O)N[C@@H](C)C(=O)N[C@H]3Cc4cn(nn4)CCCN4C[C@@H]5OB(O[C@@H]5C4)[C@H](C)NC3=O)[C@@H](C)O)cc2)cc1	FALSE
C[C@@H]1NC(=O)[C@@H](NC(=O)[C@H](C)NC(=O)[C@@H](NC(=O)[C@H](CCCN)NC(=O)c2ccc(-c3ccccc3)cc2)[C@@H](C)O)Cc2cn(nn2)CCO[C@@H]2C[C@@H]3OB1O[C@@H]3C2	FALSE
CCCCCCc1ccc(-c2ccc(C(=O)N[C@@H](CCCN)C(=O)N[C@H](C(=O)N[C@@H](C)C(=O)N[C@H]3Cc4cn(nn4)CCN4C[C@@H]5OB(O[C@@H]5C4)[C@H](C)NC3=O)[C@@H](C)O)cc2)cc1	FALSE
CCCCCCc1ccc(-c2ccc(C(=O)N[C@@H](CCCN)C(=O)N[C@H](C(=O)N[C@@H](C)C(=O)N[C@H]3Cc4cn(nn4)CCCN4C[C@@H]5OB(O[C@@H]5C4)[C@H](C)NC3=O)[C@@H](C)O)cc2)cc1	FALSE
CCCCCCc1ccc(-c2ccc(C(=O)N[C@@H](CCCN)C(=O)N(C)[C@H](C(=O)N[C@@H](C)C(=O)N[C@H]3Cc4cn(nn4)CCCN4C[C@@H]5OB(O[C@@H]5C4)[C@H](C)NC3=O)[C@@H](C)O)cc2)cc1	FALSE

Is the reported MIC for C[C@@H]1NC(=O)[C@@H](NC(=O)[C@H](C)NC(=O)[C@@H](NC(=O)[C@H](CCCN)NC(=O)c2ccc(=O)n(-c3ccccc3)c2)[C@@H](C)O)Cc2cn(nn2)CCO[C@@H]2C[C@@H]3OB1O[C@@H]3C2 strictly below 30 µg/mL?
FALSE

Quick check: MIC of CCCCCCC#Cc1cncc(C(=O)N[C@@H](CCCN)C(=O)N[C@H](C(=O)N[C@@H](C)C(=O)N[C@H]2Cc3cn(nn3)CCO[C@@H]3C[C@@H]4OB(O[C@@H]4C3)[C@H](C)NC2=O)[C@@H](C)O)c1 under 30 µg/mL?
FALSE

Field: below-cutoff. Rule: recorded MIC strictly less than 30 µg/mL. Subject: CCCCCCc1ccc(-n2cc(C(=O)N[C@@H](CCCN)C(=O)N[C@H](C(=O)N[C@@H](C)C(=O)N[C@H]3Cc4cn(nn4)CCO[C@@H]4C[C@@H]5OB(O[C@@H]5C4)[C@H](C)NC3=O)[C@@H](C)O)ccc2=O)cc1
FALSE

Quick check: does CCCCCCc1ccc(-c2ccc(C(=O)N[C@@H](CCCN)C(=O)N[C@H](C(=O)N[C@@H](C)C(=O)N[C@@H](CC(N)=O)C(=O)N[C@@H](C)B(O)O)[C@@H](C)O)cc2)cc1 ({Benzoyl(4-(4-hexylphenyl))}-[Orn]TAN-boroAla) have MIC under 30 µg/mL?
TRUE

Find out if reported MIC for C[C@@H]1NC(=O)[C@@H](NC(=O)[C@H](C)NC(=O)[C@@H](NC(=O)[C@H](CCCN)NC(=O)C#Cc2ccc(-c3ccccc3)cc2)[C@@H](C)O)Cc2cn(nn2)CCO[C@@H]2C[C@@H]3OB1O[C@@H]3C2 is less than 30 µg/mL
FALSE

Take the molecule CCCCCCc1ccc(-c2ccc(C(=O)N[C@@H](CCCN)C(=O)N[C@H](C(=O)N[C@@H](C)C(=O)N[C@@H](CC(N)=O)C(=O)N[C@@H](C)B3OC4C[C@@H]5C[C@@H](C5(C)C)[C@]4(C)O3)[C@@H](C)O)cc2)cc1 (stereo not given in full) ({Benzoyl(4-(4-hexylphenyl))}-[Orn]TAN-X1) and say whether its MIC is less than 30 µg/mL.
TRUE

In the record for CCCCCCc1ccc(-c2c[nH]c3ccc(C(=O)N[C@@H](CCCN)C(=O)N[C@H](C(=O)N[C@@H](C)C(=O)N[C@H]4Cc5cn(nn5)CCO[C@@H]5C[C@@H]6OB(O[C@@H]6C5)[C@H](C)NC4=O)[C@@H](C)O)cc23)cc1 , is MIC less than 30 µg/mL?
TRUE

Criterion: MIC strictly below 30 µg/mL. Is it met by CCCCCCc1ccc(-c2ccc(C(=O)N[C@@H](CCCNC(=N)N)C(=O)N[C@H](C(=O)N[C@@H](C)C(=O)N[C@H]3Cc4cn(nn4)CCCN4C[C@@H]5OB(O[C@@H]5C4)[C@H](C)NC3=O)[C@@H](C)O)cc2)cc1 ?
TRUE

Given the entry CCCCCCc1ccc(-c2nc3cc(C(=O)N[C@@H](CCCN)C(=O)N[C@H](C(=O)N[C@@H](C)C(=O)N[C@H]4Cc5cn(nn5)CCO[C@@H]5C[C@@H]6OB(O[C@@H]6C5)[C@H](C)NC4=O)[C@@H](C)O)ccc3[nH]2)cc1 , would its reported MIC be below 30 µg/mL?
TRUE

Dear reviewer, please state whether CCCCCCc1ccc(-c2ccc(C(=O)N[C@@H](CCCN)C(=O)N[C@H](C(=O)N[C@@H](C)C(=O)N[C@H]3Cc4cn(nn4)CCO[C@@H]4C[C@@H]5OB(O[C@@H]5C4)[C@H](C)NC3=O)[C@@H](C)O)cc2)cc1 has MIC strictly beneath 30 µg/mL.
TRUE

Source: ChEMBL document CHEMBL4270642
